src = the Human Domainome abundance scans (Beltran et al. 2025)

Can you tell me abundance fitness for the items I'm about to list?
B1: DnaJ homolog subfamily C member 2, residues 451 to 503; numbered along this chain, Q99543 (parent)
chain: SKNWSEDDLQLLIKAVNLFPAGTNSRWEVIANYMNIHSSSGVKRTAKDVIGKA

Variants of: B1
ASSAY_NOTES: abundance fitness (aPCA) (normalised: wild type 0, dead -1); higher = more abundant; growth selection in yeast, the domain comes from the species named
PARTICULARS: Homo sapiens
Answer with the value's number alone.

Ask | // abundance fitness lookup, key: A46T
Reply | -0.114

Ask | # abundance fitness lookup, item N3C
Reply | -0.247

Ask | Quick check: abundance fitness of W4R ?
Reply | -0.777
